TESTED SYSTEM: human DGKα (Homo sapiens)
Construct: TVMV protease cleavage site (C); Hexa-His (C); made in house; host or cells: Sf9 insect cells (baculovirus, Bac-to-Bac)
Sequence (P23743 with tags, fused parts or gaps): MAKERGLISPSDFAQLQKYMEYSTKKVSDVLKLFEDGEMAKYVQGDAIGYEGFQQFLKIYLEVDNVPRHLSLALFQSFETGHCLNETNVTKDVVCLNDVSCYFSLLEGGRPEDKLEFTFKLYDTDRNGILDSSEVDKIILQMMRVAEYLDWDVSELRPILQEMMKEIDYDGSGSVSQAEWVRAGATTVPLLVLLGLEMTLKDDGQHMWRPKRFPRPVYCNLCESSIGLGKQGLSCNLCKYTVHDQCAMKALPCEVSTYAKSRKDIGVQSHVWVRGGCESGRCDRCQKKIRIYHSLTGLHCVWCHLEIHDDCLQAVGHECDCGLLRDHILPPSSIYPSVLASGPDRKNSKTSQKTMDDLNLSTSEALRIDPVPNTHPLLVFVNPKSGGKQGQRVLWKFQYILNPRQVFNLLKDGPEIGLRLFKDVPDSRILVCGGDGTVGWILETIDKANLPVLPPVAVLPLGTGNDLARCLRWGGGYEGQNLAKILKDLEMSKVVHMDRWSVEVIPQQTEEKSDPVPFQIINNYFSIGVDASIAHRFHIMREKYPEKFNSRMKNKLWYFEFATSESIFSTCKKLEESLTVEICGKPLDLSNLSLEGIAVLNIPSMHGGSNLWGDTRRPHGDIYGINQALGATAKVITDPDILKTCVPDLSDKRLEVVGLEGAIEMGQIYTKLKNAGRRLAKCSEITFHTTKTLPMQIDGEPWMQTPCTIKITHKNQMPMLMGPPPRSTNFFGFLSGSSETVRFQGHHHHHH
ASSAY REMARKS: DGKα LIPGLO assay (extruded liposome substrate), in vitro DGK inhibition
Assay type: biochemical
STATED CONDITIONS: liposome (LIPGLO) assay; read-out: DGKa LIPGLO IC50
pIC50: −log10 of the molar value.
Output 1 for pIC50 not less than 5; output -1 otherwise.

Reference set, count: 9
Cc1ccc(C(c2ccc(Cl)cc2)N2C[C@H](C)N(c3cc(=O)n(C)c4ccc(C#N)nc34)C[C@H]2C)cc1 (stereo partly drawn) [Example 299]: 1
C[C@@H]1CN(c2c(C(F)F)c(=O)n(C)c3ccc(C#N)nc23)[C@@H](C)CN1Cc1ccc(OC(F)(F)F)cc1F: -1
CC[C@@H]1CN(c2cc(=O)n(C)c3ccc(C#N)nc23)[C@@H](C)CN1C(c1ccc(OC(F)(F)F)cc1)c1ccccn1 (single isomer, unassigned) [Example 341]: 1
CC[C@H]1CN(C(C)c2ccc(F)cc2F)[C@H](C)CN1c1cc(=O)n(C)c2ccc(C#N)nc12 (single isomer, unassigned) [Example 1138]: 1
CC(c1ccc(OC(F)(F)F)cc1)N1C[C@H](C)N(c2cc(=O)n(C)c3ccc(C#N)nc23)C[C@H]1C (single isomer, unassigned) [Example 435]: 1
C[C@@H]1CN(c2cc(=O)n(C)c3ccc(C#N)nc23)[C@@H](C)CN1C(c1ccccc1)c1ccc(Cl)cc1 (single isomer, unassigned) [Example 671]: 1
CC(c1ccc(F)cc1)N1C[C@@H](C)N(c2cc(=O)n(C)c3ccc(C#N)nc23)C[C@@H]1CO (single isomer, unassigned) [Example 1178]: -1
C[C@@H]1CN(c2cc(=O)n(C)c3ccc(C#N)nc23)[C@@H](C)CN1C(c1ccc(F)cc1)c1c(F)cccc1F (single isomer, unassigned) [Example 275]: 1
Cn1c(=O)c(C#N)c(N2CCN(C(c3ccc(F)cc3)c3ccc(F)cc3)C(C(=O)NC3CC3)C2)c2nc(C#N)ccc21 (single isomer, unassigned) [Example 60]: -1

For this compound, is measured pIC50 5 or higher? CC(c1ccc(OC(F)(F)F)cc1)N1C[C@H](C)N(c2cc(=O)n(C)c3ccc(C#N)nc23)C[C@H]1CN1CCOCC1 (single isomer, unassigned) [Example 1416] -1
